Cited source: patent US4322340A

# Test system: mouse
# EXPERIMENT_SUMMARY: mouse locomotor activity test (physical dependence liability)
# Assay type: in vivo
# DETAILS: Dose 32 mg./kg. subcutaneously, group of ten mice
Where a name gives a salt, the structure may show the parent alone.
mean of the total counts, locomotor activity over three hours below 900 counts gives label 0; mean of the total counts, locomotor activity over three hours at or above it gives label 1.

[[record]]
compound = "CCN(C(=O)CNC(=O)[C@@H](C)NC(=O)[C@H](Cc1ccc(O)cc1)NC)[C@@H](Cc1cccc(C)c1)C(N)=O [Example 4, Acetate Salt]"
label_class = "label 1"

[[record]]
compound = "CCN(C(=O)CNC(=O)[C@@H](C)NC(=O)[C@@H](N)Cc1ccc(O)cc1)[C@@H](Cc1cccc(Cl)c1)C(N)=O [Example 5, Acetate Salt]"
label_class = "label 1"

[[record]]
compound = "CCN(C(=O)CNC(=O)[C@@H](C)NC(=O)[C@H](Cc1ccc(O)cc1)NC)[C@@H](Cc1cccc(Br)c1)C(N)=O [Example 2, Acetate Salt]"
label_class = "label 0"

[[record]]
compound = "CCN(C(=O)CNC(=O)[C@@H](C)NC(=O)[C@H](Cc1ccc(O)cc1)NC)[C@@H](Cc1ccc(F)cc1)C(N)=O [Me Et p-F, reference compound]"
label_class = "label 1"

[[record]]
compound = "CCN(C(=O)CNC(=O)[C@@H](C)NC(=O)[C@@H](N)Cc1ccc(O)cc1)[C@@H](Cc1ccccc1)C(N)=O [H Et H, reference compound]"
label_class = "label 1"

[[record]]
compound = "CCN(C(=O)CNC(=O)[C@@H](C)NC(=O)[C@H](Cc1ccc(O)cc1)NC)[C@@H](Cc1cccc(Cl)c1)C(N)=O [Example 6, Acetate Salt]"
label_class = "label 1"

[[record]]
compound = "CCN(C(=O)CNC(=O)[C@@H](C)NC(=O)[C@@H](N)Cc1ccc(O)cc1)[C@@H](Cc1cccc(I)c1)C(N)=O [Example 7, Acetate Salt]"
label_class = "label 0"

[[record]]
compound = "CN[C@@H](Cc1ccc(O)cc1)C(=O)N[C@H](C)C(=O)NCC(=O)N(CC1CC1)[C@@H](Cc1cccc(Br)c1)C(N)=O [Example 1, Acetate Salt]"
label_class = "label 0"


###

# System: mouse
# EXPERIMENT_SUMMARY: mouse locomotor activity test (physical dependence liability)
# Type: in vivo
# DETAILS: Dose 16 mg./kg. subcutaneously, group of ten mice
Structures can show the parent of a compound that is named as a salt.
Reported mean of the total counts, locomotor activity over three hours by item:
ASSAY_ENDPOINT: mean of the total counts, locomotor activity over three hours (counts)

[[record]]
molecule = "CCN(C(=O)CNC(=O)[C@@H](C)NC(=O)[C@H](Cc1ccc(O)cc1)NC)[C@@H](Cc1cccc(C)c1)C(N)=O [Example 4, Acetate Salt]"
recorded_value = 537

[[record]]
molecule = "CN[C@@H](Cc1ccc(O)cc1)C(=O)N[C@H](C)C(=O)NCC(=O)N(CC1CC1)[C@@H](Cc1cccc(Br)c1)C(N)=O [Example 1, Acetate Salt]"
recorded_value = 276

[[record]]
molecule = "CCN(C(=O)CNC(=O)[C@@H](C)NC(=O)[C@@H](N)Cc1ccc(O)cc1)[C@@H](Cc1cccc(Cl)c1)C(N)=O [Example 5, Acetate Salt]"
recorded_value = 819

[[record]]
molecule = "CCN(C(=O)CNC(=O)[C@@H](C)NC(=O)[C@H](Cc1ccc(O)cc1)NC)[C@@H](Cc1cccc(Br)c1)C(N)=O [Example 2, Acetate Salt]"
recorded_value = 358

[[record]]
molecule = "CCN(C(=O)CNC(=O)[C@@H](C)NC(=O)[C@@H](N)Cc1ccc(O)cc1)[C@@H](Cc1cccc(I)c1)C(N)=O [Example 7, Acetate Salt]"
recorded_value = 363

[[record]]
molecule = "CCN(C(=O)CNC(=O)[C@@H](C)NC(=O)[C@H](Cc1ccc(O)cc1)NC)[C@@H](Cc1ccc(F)cc1)C(N)=O [Me Et p-F, reference compound]"
recorded_value = 2415

[[record]]
molecule = "CCN(C(=O)CNC(=O)[C@@H](C)NC(=O)[C@@H](N)Cc1ccc(O)cc1)[C@@H](Cc1ccccc1)C(N)=O [H Et H, reference compound]"
recorded_value = 2916

[[record]]
molecule = "CCN(C(=O)CNC(=O)[C@@H](C)NC(=O)[C@H](Cc1ccc(O)cc1)NC)[C@@H](Cc1cccc(Cl)c1)C(N)=O [Example 6, Acetate Salt]"
recorded_value = 796


###

# Test system: mouse
# EXPERIMENT_SUMMARY: mouse locomotor activity test (physical dependence liability)
# Type: in vivo
# DETAILS: Dose 64 mg./kg. subcutaneously, group of ten mice
Structures can show the parent of a compound that is named as a salt.
ASSAY_ENDPOINT: mean of the total counts, locomotor activity over three hours

[[record]]
compound = "CN[C@@H](Cc1ccc(O)cc1)C(=O)N[C@H](C)C(=O)NCC(=O)N(CC1CC1)[C@@H](Cc1cccc(Br)c1)C(N)=O [Example 1, Acetate Salt]"
recorded_value = "1888 counts"

[[record]]
compound = "CCN(C(=O)CNC(=O)[C@@H](C)NC(=O)[C@H](Cc1ccc(O)cc1)NC)[C@@H](Cc1cccc(Cl)c1)C(N)=O [Example 6, Acetate Salt]"
recorded_value = "4477 counts"

[[record]]
compound = "CCN(C(=O)CNC(=O)[C@@H](C)NC(=O)[C@H](Cc1ccc(O)cc1)NC)[C@@H](Cc1cccc(C)c1)C(N)=O [Example 4, Acetate Salt]"
recorded_value = "3231 counts"


###

# System: mouse
# EXPERIMENT_SUMMARY: mouse locomotor activity test (physical dependence liability)
# Assay type: in vivo
# DETAILS: Dose 8 mg./kg. subcutaneously, group of ten mice
# Method: A high correlation has been established between the degree of physical dependence liability of a compound and its ability to elicit mouse locomotor activity; Cf. […] Mouse locomotor activity is measured using cylindrical cages of wire mesh 2 inches high and 11 inches in diameter. […] The number of counts per each 15 minute period as well as the total number over the three hour period are recorded. […]
Structures can show the parent of a compound that is named as a salt.
Mark each entry t if its mean of the total counts, locomotor activity over three hours sits below 300 counts, and f for all others.

[[record]]
molecule = "CCN(C(=O)CNC(=O)[C@@H](C)NC(=O)[C@@H](N)Cc1ccc(O)cc1)[C@@H](Cc1cccc(I)c1)C(N)=O [Example 7, Acetate Salt]"
label_class = "t"

[[record]]
molecule = "CN[C@@H](Cc1ccc(O)cc1)C(=O)N[C@H](C)C(=O)NCC(=O)N(CC1CC1)[C@@H](Cc1cccc(Br)c1)C(N)=O [Example 1, Acetate Salt]"
label_class = "t"

[[record]]
molecule = "CCN(C(=O)CNC(=O)[C@@H](C)NC(=O)[C@H](Cc1ccc(O)cc1)NC)[C@@H](Cc1cccc(C)c1)C(N)=O [Example 4, Acetate Salt]"
label_class = "t"

[[record]]
molecule = "CCN(C(=O)CNC(=O)[C@@H](C)NC(=O)[C@H](Cc1ccc(O)cc1)NC)[C@@H](Cc1cccc(Br)c1)C(N)=O [Example 2, Acetate Salt]"
label_class = "t"

[[record]]
molecule = "CCN(C(=O)CNC(=O)[C@@H](C)NC(=O)[C@@H](N)Cc1ccc(O)cc1)[C@@H](Cc1cccc(Cl)c1)C(N)=O [Example 5, Acetate Salt]"
label_class = "f"

[[record]]
molecule = "CCN(C(=O)CNC(=O)[C@@H](C)NC(=O)[C@@H](N)Cc1ccc(O)cc1)[C@@H](Cc1ccccc1)C(N)=O [H Et H, reference compound]"
label_class = "f"

[[record]]
molecule = "CCN(C(=O)CNC(=O)[C@@H](C)NC(=O)[C@H](Cc1ccc(O)cc1)NC)[C@@H](Cc1ccc(F)cc1)C(N)=O [Me Et p-F, reference compound]"
label_class = "f"


###

# maps each entry to its mean of the total counts, locomotor activity over three hours
# System: mouse
# EXPERIMENT_SUMMARY: mouse locomotor activity test (physical dependence liability)
# Assay type: in vivo
# DETAILS: Dose 64 mg./kg. subcutaneously, group of ten mice
Structures can show the parent of a compound that is named as a salt.
ASSAY_ENDPOINT: mean of the total counts, locomotor activity over three hours (counts)

[[record]]
compound = "CCN(C(=O)CNC(=O)[C@@H](C)NC(=O)[C@@H](N)Cc1ccc(O)cc1)[C@@H](Cc1cccc(Cl)c1)C(N)=O [Example 5, Acetate Salt]"
recorded_value = 3667

[[record]]
compound = "CCN(C(=O)CNC(=O)[C@@H](C)NC(=O)[C@H](Cc1ccc(O)cc1)NC)[C@@H](Cc1cccc(Br)c1)C(N)=O [Example 2, Acetate Salt]"
recorded_value = 2523

[[record]]
compound = "CCN(C(=O)CNC(=O)[C@@H](C)NC(=O)[C@@H](N)Cc1ccc(O)cc1)[C@@H](Cc1cccc(I)c1)C(N)=O [Example 7, Acetate Salt]"
recorded_value = 1630

